Source: patent US10125135B2

- assay.procedure: Human hepatocyte assay (metabolic stability)
- Format: in vitro ADME
- experimental.context: human hepatocytes, 37° C., 1.0×10^6 viable cells/mL; read-out: Clint (in vitro intrinsic clearance)
Here, each record is paired with measured hepatocyte CLint at 1 µM data.
Hey, just the number and the unit after it is fine.

Below: 3 compounds and their reported hepatocyte CLint at 1 µM.
compound="COc1cc(OCCN2CC(CF)C2)ccc1[C@@H]1c2ccc3[nH]ncc3c2C[C@@H](C)N1CC1(F)CC1 [Example 6]" reported_metric="hepatocyte CLint at 1 µM" result="7 µL/min/1e6 cells"
compound="C[C@@H]1Cc2c(ccc3[nH]ncc23)[C@@H](c2c(F)cc(OCCN3CC(C(F)F)C3)cc2F)N1CC(C)(C)F [Example 38]" reported_metric="hepatocyte CLint at 1 µM" result="15 µL/min/1e6 cells"
compound="C[C@@H]1Cc2c(ccc3[nH]ncc23)[C@@H](c2ccc(OCCN3CC(CF)C3)cn2)N1CC(F)F [Example 51]" reported_metric="hepatocyte CLint at 1 µM" result="5 µL/min/1e6 cells"

Kindly consider the entry below.
The recorded hepatocyte CLint at 1 µM for C[C@@H]1Cc2c(ccc3[nH]ncc23)[C@@H](c2c(F)cc(OCCN3CC(CF)C3)cc2F)N1CC(C)(C)F [Example 1] is 8 µL/min/1e6 cells

---

- assay.target: UniProt:P03372
- Sequence (P03372 whole entry): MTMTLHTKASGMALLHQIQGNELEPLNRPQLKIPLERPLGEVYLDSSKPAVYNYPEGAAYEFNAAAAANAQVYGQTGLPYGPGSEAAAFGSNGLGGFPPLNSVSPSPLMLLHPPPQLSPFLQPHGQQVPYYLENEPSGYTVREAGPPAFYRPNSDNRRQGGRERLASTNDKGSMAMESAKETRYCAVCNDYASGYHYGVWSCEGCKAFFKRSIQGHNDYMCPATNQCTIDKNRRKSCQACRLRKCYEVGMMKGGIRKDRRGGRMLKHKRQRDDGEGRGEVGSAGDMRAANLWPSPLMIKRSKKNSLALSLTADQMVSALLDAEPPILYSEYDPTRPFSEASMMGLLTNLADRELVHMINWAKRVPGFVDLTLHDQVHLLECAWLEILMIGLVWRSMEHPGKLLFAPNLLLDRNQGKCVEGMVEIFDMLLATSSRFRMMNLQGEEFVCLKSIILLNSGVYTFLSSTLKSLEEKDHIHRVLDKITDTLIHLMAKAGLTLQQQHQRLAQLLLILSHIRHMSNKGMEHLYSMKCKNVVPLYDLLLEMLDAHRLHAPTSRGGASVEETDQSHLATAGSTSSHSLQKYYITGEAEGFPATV
- assay.procedure: MCF-7 ER down regulation assay (immuno-fluorescence)
- Type: cell-based
- experimental.context: MCF-7 cells, 18-22 hours incubation; read-out: ER down regulation IC50 value
Recorded DC50 by entry
Kindly answer with a numeric value in nM, unit omitted.

See these solved cases before continuing.
molecule=CC(C)CN1[C@H](c2c(F)cc(OCCN3CC(CF)C3)cc2F)c2ccc3[nH]ncc3c2C[C@H]1C numeric_readout=0.21
molecule=COc1cc(OCCN2CC(CF)C2)ccc1[C@@H]1c2ccc3[nH]ncc3c2C[C@@H](C)N1CC(C)(F)F numeric_readout=0.036
molecule=COc1cc(OCCN2CC(CF)C2)cc(F)c1[C@@H]1c2ccc3[nH]ncc3c2C[C@@H](C)N1CC(F)(F)CO numeric_readout=0.13
molecule=COc1cc(OCCN2CC(CF)C2)ccc1[C@@H]1c2ccc3[nH]ncc3c2C[C@@H](C)N1CC(F)(F)CO numeric_readout=0.15
molecule="C[C@@H]1Cc2c(ccc3[nH]ncc23)[C@@H](c2c(F)cc(OCCN3CC(CF)C3)cc2F)N1CC(F)CF (single isomer, unassigned) [Example 34]" numeric_readout=0.28
molecule=C[C@@H]1Cc2c(ccc3[nH]ncc23)[C@@H](c2ccc(OCCN3CC(CF)C3)cn2)N1CC(C)(F)F numeric_readout=0.29

Proceeding to the next molecule to report its DC50.
The reported DC50 of the molecule COc1cc(OCCN2CC(CF)C2)ccc1[C@@H]1c2ccc3[nH]ncc3c2C[C@@H](C)N1CC(C)(F)CF (single isomer, unassigned) [Example 20] was 0.13
